Experiment: PSAC antagonists in infected red cells, primary screen, cell-based, P. falciparum Indochina, OD700, 18 h (AID 1157)
Conditions: P. falciparum Indochina infected erythrocytes, osmotic lysis OD700, 18 h; higher = more signal, called active from +8 up or from −8 down
Entry flag: 1 (yes) if z-score reaches 0.7; 0 (no) if it does not.

Identify whether the reported z-score of the following compound is 0.7 or greater: CC(C)[Si]1(C(C)C)OCc2cc(-c3ccc(-c4ccc(Cl)c(Cl)c4)o3)nc(-c3ccc(Oc4ccccc4)cc3)c21
0 (no)

Identify whether the reported z-score of the following compound is 0.7 or greater: CCCN1C(=O)[C@@]2(c3ccc([N+](=O)[O-])cc3)CC(=O)N(C3CCCCC3)[C@@H]2c2ccc(CO)cc21
0 (no)

Identify whether the reported z-score of the following compound is 0.7 or greater: CN1C2C=C(c3ccc(CO)cc3)C(C3C(=O)N(C(N)=O)C(=O)C32)C1C1CC1 (centres undefined)
0 (no)

Identify whether the reported z-score of the following compound is 0.7 or greater: CC(C)C[C@@H]1NC(=O)[C@H]2C[C@@H](C(=O)O)[C@@H](c3cccc(OCCO)c3)N2C1=O
0 (no)

Identify whether the reported z-score of the following compound is 0.7 or greater: COc1ccc(C(=O)Nc2cccc(CN3C(=O)[C@]4(O[C@H](CC(=O)N(CCO)Cc5ccccc5)[C@@H]([Si](C)(C)c5ccc(OC)cc5)[C@@H]4C)c4ccccc43)c2)cc1
1 (yes)

Identify whether the reported z-score of the following compound is 0.7 or greater: C=CCOC(=O)[C@H]1[C@@H]2C(=O)O[C@@H](c3ccccc3)[C@@H](c3ccccc3)N2[C@@H](c2ccc(OCCOC(=O)[C@@H]3C[C@@H]4C(=O)N[C@@H](Cc5ccccc5)C(=O)N4[C@@H]3c3ccc(O)cc3)cc2)[C@]12C(=O)Nc1ccc(I)cc12
1 (yes)

Identify whether the reported z-score of the following compound is 0.7 or greater: O=C(c1ccccc1)N1Cc2ccccc2C[C@@]2(N=C(c3ccc(OCCCO)cc3)O[C@H]2c2ccccc2)C1=O
1 (yes)

Identify whether the reported z-score of the following compound is 0.7 or greater: COc1cc(Cc2cc3c(c(-c4ccccc4)n2)[Si](C(C)C)(C(C)C)OC3)cc(OC)c1OC
0 (no)

Identify whether the reported z-score of the following compound is 0.7 or greater: CO[C@H]1O[C@H](CO)[C@@H](OC(=O)Nc2cccc(F)c2)[C@H](OC(=O)c2cc3ccccc3[nH]2)[C@H]1OC(=O)c1cc2ccccc2[nH]1
0 (no)

Identify whether the reported z-score of the following compound is 0.7 or greater: O=C1NC(=O)C2C1C=CC(C(O)c1ccc(F)cc1)N2Nc1ccc(Cl)cc1Cl (centres undefined)
1 (yes)

###

Target: Torsin-1A-interacting protein 1 (Homo sapiens)
Test: LAP1 binders from COS7 cell lysate, primary screen, small-molecule microarray, 635/667 nm fluorescence (AID 1116)
Details: COS7-hLAP1 lysate binding, 635 nm fluorescence, higher = more signal
Provide the reported composite z-score of each item.

molecule | testReadout | measuredResult
O=C1C2C=CC(C(O)C3CCCCC3)N(Nc3ccccc3F)C2C(=O)N1c1ccccc1 (configuration not stated) | composite z-score | 1.27

Required: composite z-score, one value per molecule below.
1. COc1ccc(C(O)C2C=CC3C(=O)N(c4ccccc4)C(=O)C3N2Nc2ccccc2F)c2ccccc12 (configuration not stated)
2. COCCOC(=O)N1C(=O)[C@@]2(c3cc(C#CCNC(N)=O)ccc31)[C@H](C(=O)N1CCN(c3ncccn3)CC1)[C@H]1C(=O)O[C@H](c3ccccc3)[C@H](c3ccccc3)N1[C@@H]2c1ccc(O)cc1
3. [N-]=[N+]=NCc1ccccc1[C@H]1OC(c2ccc(OCCCO)cc2)=N[C@@]1(Cc1ccccc1N=[N+]=[N-])C(N)=O

1: 1.28; 2: -0.92; 3: 0.154

Required: composite z-score, one value per molecule below.
1. Cc1cccc([C@H]2C[C@H]3C(Br)=C[C@@]2(CO)C(=O)[C@]32CO2)c1
2. CC(C)(C)OC(=O)CC[C@]1(C(=O)N2CCOCC2)COC(c2ccc(OCCCO)cc2)=N1
3. COCCOC(=O)N1C(=O)[C@@]2(c3cc(C#CCC(C(=O)OC)C(=O)OC)ccc31)[C@H](C(=O)N1CCc3cc(OC)c(OC)cc3C1)[C@H]1C(=O)O[C@H](c3ccccc3)[C@H](c3ccccc3)N1[C@@H]2c1ccccc1OCCO

-0.374
1.13
1.03

###

Provide the reported z-score of each item.
Assay: mitochondrial membrane potential change in A549 cells, profiling panel, cell-based, JC-1 fluorescence, basal, 24 h, 100 nL (AID 1138);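 note: A549 lung adenocarcinoma cells under basal conditions with no added stimulus; test concentration not given here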
Settings: higher = more signal
One number for each entry.

// solved cases for z-score follow
chemicalStructure | testReadout | measuredResult
COc1ccc([Si](C)(C)[C@H]2[C@H](CC(=O)N3CCC[C@H]3CO)O[C@@]3(C(=O)N(C)c4ccccc43)[C@@H]2C)cc1 | z-score | -0.151
COCCCNC(=O)[C@@]1(CCC(=O)OC(C)(C)C)N=C(c2ccc(OCCCO)cc2)O[C@H]1c1ccccc1 | z-score | 1.42
CCCCC(=C=CC[C@H](O)c1ccccc1OCCO)CCO | z-score | -0.378
CC(C)C[C@@H]1NC(=O)[C@H]2C[C@@H](C(=O)O)[C@@H](c3cccc(OCCO)c3)N2C1=O | z-score | 0.951
CCOC(=O)C[C@H]1[C@H](OC(=O)c2ccccc2-c2ccccc2)[C@@H](NC(=O)CC(C)C)c2cc(OCCCO)ccc2N1C(=O)c1ccccc1 | z-score | -0.154

Required: z-score, one value per compound below.
1. CCOC(=O)C[C@H]1[C@H](OC(=O)Cc2ccc3c(c2)OCO3)[C@@H](NC(=O)CC(C)C)c2cc(OCCCO)ccc2N1C(=O)c1ccc2ccccc2n1
2. [N-]=[N+]=NCc1ccccc1[C@H]1OC(c2ccc(OCCCO)cc2)=N[C@@]1(Cc1ccccc1N=[N+]=[N-])C(=O)N1CCOCC1

[-0.944, 0.704]

###

Provide the reported z-score of each item.
Assay: P. aeruginosa biofilm formation inhibitors, primary screen, strain PAO1, LB-PBS medium, absorbance 600 nm (AID 1176); note: test concentration not given here
Settings: P. aeruginosa PAO1 growth/biofilm, A600, 12 h; higher = more signal
Give bare numbers.

// solved cases for z-score follow
compound | measuredResult
CC(C)[Si]1(C(C)C)OCc2cc(-c3ccc(-c4ccc(Cl)c(Cl)c4)o3)nc(-c3ccc(Oc4ccccc4)cc3)c21 | 0.574
CC(C)c1ccc(NN2C(C(O)c3ccccc3)C=CC3C(=O)N(c4ccccc4)C(=O)C32)cc1 (centres undefined) | 1.16
COc1c(C)cc(-c2nc(-c3ccccc3)c3c(c2C)CO[Si]3(C(C)C)C(C)C)cc1C | 0.845

Please examine the following record next.
Using the record for CN1C(=O)C2C=CC(C(O)c3ccc(I)cc3)N(N(c3ccccc3)c3ccccc3)C2C1=O (centres undefined) , state its measured z-score.
0.944

###

Biological target: Dihydroorotate dehydrogenase (quinone), mitochondrial (Plasmodium falciparum (isolate 3D7)) (UniProt Q08210)
Sequence (Q08210 whole entry, looked up): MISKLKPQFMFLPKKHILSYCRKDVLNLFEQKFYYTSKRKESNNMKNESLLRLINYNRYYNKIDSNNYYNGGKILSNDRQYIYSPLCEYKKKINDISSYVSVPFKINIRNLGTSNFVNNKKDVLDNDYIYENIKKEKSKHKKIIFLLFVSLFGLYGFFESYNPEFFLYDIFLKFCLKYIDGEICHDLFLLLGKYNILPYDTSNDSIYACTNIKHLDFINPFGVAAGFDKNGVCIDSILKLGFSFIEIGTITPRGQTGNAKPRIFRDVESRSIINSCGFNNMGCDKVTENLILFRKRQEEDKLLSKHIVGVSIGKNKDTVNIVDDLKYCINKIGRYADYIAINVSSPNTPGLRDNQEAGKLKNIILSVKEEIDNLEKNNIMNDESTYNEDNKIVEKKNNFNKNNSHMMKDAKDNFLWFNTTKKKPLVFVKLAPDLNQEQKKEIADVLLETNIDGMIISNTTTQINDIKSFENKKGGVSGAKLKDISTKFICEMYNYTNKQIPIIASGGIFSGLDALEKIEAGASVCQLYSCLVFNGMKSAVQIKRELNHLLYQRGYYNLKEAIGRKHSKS
Assay: PfDHODH enzyme inhibitors, primary screen, biochemical, C-terminal His tag, absorbance 600 nm (AID 1175);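 note: recombinant parasite enzyme with a five histidine tag at its C terminus; test concentration not given here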
Settings: DCIP absorbance 600 nm, higher = more signal, called active from +8 up or from −8 down
Entry flag: yes (1) if composite z-score reaches 0.3; no (0) if it does not.

molecule | cat
Cc1ccc(S[C@]2(C(=O)NCc3ccccc3)CC(=O)N(Cc3ccccc3C(F)(F)F)[C@@H]2c2ccc(CO)cc2I)cc1 | no (0)
O=C/C=C/c1ccc(-c2ccccc2)cc1 | no (0)
[N-]=[N+]=NCc1ccccc1C[C@@]1(C(N)=O)N=C(c2ccc(OCCCO)cc2)O[C@@H]1c1ccccc1N=[N+]=[N-] | yes (1)
[N-]=[N+]=Nc1ccccc1C[C@]1(C(N)=O)COC(c2ccc(OCCCO)cc2)=N1 | no (0)
C=C(CC1([C@@H](NP(=O)(c2ccccc2)c2ccccc2)[C@H]2C[C@@H]2CCCC)CC1)c1cccc(OC)c1 | no (0)
C[C@H]1C2[C@H](Cc3ccccc3)NC(=O)[C@]23C(=O)N[C@@H](Cc2ccccc2)C(=O)N2CCC[C@H]2C(=O)NC/C=C/CC/C=C/C3[C@@H]2O[C@]12C (some centres undefined) | no (0)
NCCCCCCNC(=O)[C@@H]1C[C@@H]2C(=O)NCC(=O)N2[C@@H]1c1cccc(OCCO)c1 | no (0)
C=C(COC)C(=O)CC[C@H](OC(C)=O)c1ccccc1OCCO | no (0)
COCCCNC(=O)[C@]1(Cc2ccccc2CN=[N+]=[N-])N=C(c2ccc(OCCCO)cc2)O[C@@H]1c1ccccc1N=[N+]=[N-] | yes (1)
C=CCOC(=O)[C@H]1[C@@H]2C(=O)O[C@@H](c3ccccc3)[C@@H](c3ccccc3)N2[C@@H](c2ccc(OCCOC(=O)[C@@H]3C[C@@H]4C(=O)N[C@@H](Cc5ccccc5)C(=O)N4[C@@H]3c3ccc(O)cc3)cc2)[C@]12C(=O)Nc1ccc(I)cc12 | yes (1)

Identify whether the reported composite z-score of the following molecule is 0.3 or greater: C=CCC(OC(C)=O)[C@@H]1[C@@H](N(Cc2ccc(-c3ccccc3)cc2)C(=O)Cc2ccc(OC)cc2)c2cc(OCCCO)ccc2N1C(=O)Cc1ccc(OC)cc1 (some centres undefined)
no (0)

Identify whether the reported composite z-score of the following molecule is 0.3 or greater: [N-]=[N+]=NCc1ccccc1[C@H]1OC(c2ccc(OCCCO)cc2)=N[C@@]1(Cc1ccccc1N=[N+]=[N-])C(=O)N1CCOCC1
yes (1)

Identify whether the reported composite z-score of the following molecule is 0.3 or greater: CC(C)(C)OC(=O)N1[C@@H](C=C(Br)Br)COC1(C)C
no (0)
